Tested on: Salmonella enterica subsp. enterica serovar Paratyphi B
Experiment: Antibacterial activity against Salmonella paratyphi B after 24 hrs by two fold serial dilution method
Format: functional
QUANTITY: MIC (µg/mL)
Express it in µg/mL; write the number only.

Example entries begin here.
- COMPOUND: "CN[C@@H]1[C@H](O[C@H]2[C@H](O[C@H]3[C@H](O)[C@@H](O)[C@H](N=C(N)N)[C@@H](O)[C@@H]3N=C(N)N)O[C@@H](C)[C@]2(O)C=O)O[C@@H](CO)[C@H](O)[C@H]1O [STREPTOMYCIN]"
  MIC (µg/mL): 30
- COMPOUND: "C[C@@H](NCCC(=O)c1ccc(Cl)cc1Cl)[C@@H](O)c1ccccc1.Cl"
  MIC (µg/mL): 50

Kindly consider the entry below.
Recall the reported MIC of `COc1ccc(C(=O)CCN[C@@H](C)[C@H](O)c2ccccc2)cc1.Cl` on Salmonella enterica subsp. enterica serovar Paratyphi B and write it down.
50
